System: human DGAT2 (Homo sapiens (Human))
Sequence (Q96PD7 whole entry): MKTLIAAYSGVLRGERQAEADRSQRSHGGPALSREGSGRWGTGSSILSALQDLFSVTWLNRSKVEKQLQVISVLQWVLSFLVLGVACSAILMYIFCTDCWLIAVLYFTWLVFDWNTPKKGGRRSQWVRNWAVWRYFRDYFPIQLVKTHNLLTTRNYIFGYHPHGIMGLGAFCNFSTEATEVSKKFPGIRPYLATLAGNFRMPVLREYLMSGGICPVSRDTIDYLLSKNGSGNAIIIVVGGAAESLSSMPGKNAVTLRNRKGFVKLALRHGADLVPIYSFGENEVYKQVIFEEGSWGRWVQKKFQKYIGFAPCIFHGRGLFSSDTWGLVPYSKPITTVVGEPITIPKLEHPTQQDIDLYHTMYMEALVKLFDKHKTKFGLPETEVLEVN
Protocol Description: DGAT2 Enzymatic Activity Assay
Details: Human DGAT2 IC50, hDGAT2 membrane prep from Sf-9 cells; 13C18-triolein product by LC/MS/MS
IC50 under 3 nM gets True, anything at or over 3 nM gets False.

Req: Does this compound meet the criterion IC50 < 3 nM? Cn1c(C(=O)NC2(C)CCS(=O)(=O)CC2)nc2ccc(OCC(OCC(F)F)C(F)(F)F)nc21 (single isomer, unassigned) [Example 64b]
Resp: False

Req: Next up: `CC1(NC(=O)c2nc3cnc(Oc4ncc(Cl)cc4OCC(F)F)cc3s2)CCS(=O)(=O)CC1`
Resp: True

Req: Next up: `Cn1c(C(=O)NC2(C)CCS(=O)(=O)CC2)nc2ccc(Oc3ncc(Cl)cc3OCC(F)F)nc21`
Resp: True

Req: Next up: `Cn1c(C(=O)NC2(C)CCS(=O)(=O)CC2)nc2ncc(Oc3ncc(Cl)cc3OCC(F)F)cc21`
Resp: True

Req: Next up: `Cc1c(Oc2ncc(Cl)cc2OCC(F)F)ncc2nc(C(=O)NC3(C)CCS(=O)(=O)CC3)n(C)c12`
Resp: False

Req: Next up: `Cc1cc2nc(C(=O)NC3(C)CCS(=O)(=O)CC3)n(C)c2nc1Oc1ncc(Cl)cc1OCC(F)F`
Resp: True

Req: Next up: Cn1c(C(=O)NC2(C)CCS(=O)(=O)CC2)nc2ccc(OCC(CC(F)(F)F)OCC(F)F)nc21 (single isomer, unassigned) [Example 63a]
Resp: False

Req: Next up: `Cn1c(C(=O)NC2(C)CCS(=O)(=O)CC2)nc2ccc(Oc3ncc(F)cc3OCC(F)(F)F)nc21`
Resp: False

Req: Next up: `Cn1c(C(=O)NC2(C)CCS(=O)(=O)CC2)nc2ncc(Oc3ncc(Cl)cc3OCC(F)F)nc21`
Resp: False

Req: Next up: `Cn1c(C(=O)NC2(C)CCS(=O)(=O)CC2)nc2ccc(Oc3ncc(Cl)cc3OCC(F)(F)F)c(F)c21`
Resp: True

Req: Next up: `CC1(NC(=O)c2nc3ccc(Oc4ncc(Cl)cc4OCC(F)F)nc3[nH]2)CCS(=O)(=O)CC1`
Resp: False

Req: Next up: `Cn1c(C(=O)NC2(C)CCS(=O)(=O)CC2)nc2c(Cl)c(Oc3ncc(Cl)cc3OCC(F)(F)F)ccc21`
Resp: False

Req: Next up: `CC(C)n1c(C(=O)NC2(C)CCS(=O)(=O)CC2)nc2ccc(Oc3ncc(Cl)cc3OCC(F)F)nc21`
Resp: False

Req: Next up: Cn1c(C(=O)NC2(C)CCS(=O)(=O)CC2)nc2ccc(OCC(OCC(F)F)C(F)F)nc21 (single isomer, unassigned) [Example 65b]
Resp: True
